Hello, the source for this data is ChEMBL document CHEMBL6092157, in case you need it.

- procedure details: Ratio of drug concentration in brain to plasma of C57BL/6 mouse at 1 mg/kg, ip measured for 4 hrs by LC-MS/MS analysis
- Format: ADME, organism-based
- reported conditions: read-out: BPR
property measured: Kp at 4 h
Answers are plain numbers.

## Input Quick one: Kp at 4 h for `Cc1ccc2c(n1)N(Cc1ccc(C(=O)NO)cc1F)CCC2` ?
## Output 2.1

====

- procedure details: Half life in C57BL/6 mouse at 20 mg/kg, iv by LC-MS/MS analysis
- Format: ADME, organism-based
- reported conditions: in vivo
property measured: half-life (min)
Give bare numbers, in min.

## Input Quick one: half-life for `Cc1ccc2c(n1)N(Cc1ccc(C(=O)NO)cc1F)CCC2` ?
## Output 33

====

- procedure details: MRT (0 to infinity) in C57BL/6 mouse at 20 mg/kg, iv by LC-MS/MS analysis
- Format: ADME, organism-based
- reported conditions: in vivo
property measured: MRT inf

## Input Quick one: MRT inf for `Cc1ccc2c(n1)N(Cc1ccc(C(=O)NO)cc1F)CCC2` ?
## Output 17.4 min
